# TEST TARGET: Protein cereblon/Signal transducer and activator of transcription 3 (Homo sapiens, UniProt P40763+Q96SW2)
# Sequence (P40763 whole entry): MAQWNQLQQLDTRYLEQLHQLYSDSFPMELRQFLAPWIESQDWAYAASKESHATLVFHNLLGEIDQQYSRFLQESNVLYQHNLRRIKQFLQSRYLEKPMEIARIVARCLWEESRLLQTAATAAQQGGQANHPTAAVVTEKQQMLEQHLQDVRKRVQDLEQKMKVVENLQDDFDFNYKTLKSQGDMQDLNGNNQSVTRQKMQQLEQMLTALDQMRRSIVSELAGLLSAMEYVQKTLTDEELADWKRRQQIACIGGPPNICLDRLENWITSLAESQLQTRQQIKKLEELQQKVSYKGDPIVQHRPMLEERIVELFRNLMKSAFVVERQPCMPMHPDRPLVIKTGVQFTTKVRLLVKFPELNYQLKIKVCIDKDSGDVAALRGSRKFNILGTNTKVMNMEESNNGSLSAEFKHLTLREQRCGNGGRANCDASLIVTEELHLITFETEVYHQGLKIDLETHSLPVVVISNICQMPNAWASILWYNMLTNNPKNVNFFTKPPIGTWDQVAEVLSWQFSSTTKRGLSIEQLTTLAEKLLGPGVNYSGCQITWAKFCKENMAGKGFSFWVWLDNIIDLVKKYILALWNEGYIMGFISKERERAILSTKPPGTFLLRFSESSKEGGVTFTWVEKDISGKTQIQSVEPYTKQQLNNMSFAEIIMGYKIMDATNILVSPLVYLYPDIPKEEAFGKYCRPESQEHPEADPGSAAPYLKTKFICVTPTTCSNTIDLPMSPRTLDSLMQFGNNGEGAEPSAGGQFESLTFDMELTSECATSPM
# Sequence (Q96SW2 whole entry): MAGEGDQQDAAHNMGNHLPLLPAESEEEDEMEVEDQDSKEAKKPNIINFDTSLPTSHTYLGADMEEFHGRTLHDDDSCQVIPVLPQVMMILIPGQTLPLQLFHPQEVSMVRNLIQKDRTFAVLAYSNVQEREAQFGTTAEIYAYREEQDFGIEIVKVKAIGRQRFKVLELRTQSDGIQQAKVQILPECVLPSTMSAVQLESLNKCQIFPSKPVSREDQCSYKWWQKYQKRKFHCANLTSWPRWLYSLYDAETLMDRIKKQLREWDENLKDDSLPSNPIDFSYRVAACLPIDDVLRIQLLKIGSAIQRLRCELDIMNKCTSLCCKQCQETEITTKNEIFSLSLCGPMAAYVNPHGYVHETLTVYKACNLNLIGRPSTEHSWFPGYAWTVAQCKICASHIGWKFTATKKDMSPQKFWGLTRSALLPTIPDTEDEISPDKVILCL
# METHOD DESCRIPTION: Protac activity at E3 ubiquitin ligase/STAT3 in human MOLM-16 cells assessed as degradation of STAT3 incubated for 4 hrs by fluorescent immunoblotting analysis
# Type: cell-based
MEASURED ATTRIBUTE: DC50

Worked examples follow.
INSERT INTO results (molecule, observed_result) VALUES
  ('CC(C)(C)c1ccc(C[C@H](NC(=O)[C@H](CCC(N)=O)NC(=O)[C@@H]2CC[C@@H]3CCN(CC(F)F)C[C@H](NC(=O)c4cc5cc(C(F)(F)P(=O)(O)O)ccc5s4)C(=O)N32)C(=O)N2CCC(CCC#Cc3cccc4c3CN(C3CCC(=O)NC3=O)C4=O)CC2)cc1 (stereo partly specified)', '< 250 nM'),
  ('CCN1CC[C@H]2CC[C@@H](C(=O)N[C@@H](CCC(N)=O)C(=O)N[C@@H](Cc3ccc(S(=O)(=O)C4CC4)cc3)C(=O)N3CCC(CCC#Cc4cccc5c4CN(C4CCC(=O)NC4=O)C5=O)CC3)N2C(=O)[C@@H](NC(=O)c2cc3cc(C(F)(F)P(=O)(O)O)ccc3s2)C1 (stereo partly specified)', '< 250 nM'),
  ('COC(=O)N1CC[C@H]2CC[C@@H](C(=O)N[C@@H](CCC(N)=O)C(=O)N[C@@H](Cc3ccc(C(C)(C)C)cc3)C(=O)N3CCC(CCC#Cc4cccc5c4CN(C4CCC(=O)NC4=O)C5=O)CC3)N2C(=O)[C@@H](NC(=O)c2cc3cc(C(F)(F)P(=O)(O)O)ccc3s2)C1 (stereo partly specified)', '< 250 nM');

QUERY: GET /values?readout=DC50&item= CCN1CC[C@H]2CC[C@@H](C(=O)N[C@@H](CCC(N)=O)C(=O)N[C@@H](Cc3ccc(S(=O)(=O)c4ccccc4)cc3)C(=O)N3CCC(CCC#Cc4cccc5c4CN(C4CCC(=O)NC4=O)C5=O)CC3)N2C(=O)[C@@H](NC(=O)c2cc3cc(C(F)(F)P(=O)(O)O)ccc3s2)C1 (stereo partly specified)
RESULT: < 250 nM

QUERY: GET /values?readout=DC50&item= CCN1CC[C@H]2CC[C@@H](C(=O)N[C@@H](CNC(N)=O)C(=O)N[C@@H](Cc3ccc(C(C)(C)C)cc3)C(=O)N3CCC(CCC#Cc4cccc5c4CN(C4CCC(=O)NC4=O)C5=O)CC3)N2C(=O)[C@@H](NC(=O)c2cc3cc(C(F)(F)P(=O)(O)O)ccc3s2)C1 (stereo partly specified)
RESULT: < 250 nM

QUERY: GET /values?readout=DC50&item= CCN1CC[C@H]2CC[C@@H](C(=O)N[C@@H](CCC(N)=O)C(=O)N[C@@H](Cc3ccc(NS(=O)(=O)c4ccc(C)cc4)cc3)C(=O)N3CCC(CCC#Cc4cccc5c4CN(C4CCC(=O)NC4=O)C5=O)CC3)N2C(=O)[C@@H](NC(=O)c2cc3cc(C(F)(F)P(=O)(O)O)ccc3s2)C1 (stereo partly specified)
RESULT: < 250 nM
